Data provenance: patent US8338565B2

Kindly supply the reported IC50 values for the records listed here.
Target: TNFα / TNFα receptor (TNFα R1/Fc) (Homo sapiens)
Construct: purchased R&D Systems
Assay: Inhibition of binding of TNFα to the TNFα receptor (plate ELISA competition)
Settings: Table 2; read-out: Activity (IC50, inhibition of TNFα binding to TNFα R1/Fc)

{"smilesCode": "O=C1COc2ccc(cc2)C[C@@H](C(=O)O)NC(=O)[C@@H](CCc2ccccc2)NC(=O)[C@H](Cc2ccc(-c3ccccc3)cc2)NC(=O)[C@@H](Cc2ccc(C(F)(F)F)cc2)N1", "reportedMeasurement": "30 to 100 µM"}

Now take the following compound into account.
Please fill in: IC50 reported for "O=C(O)[C@H](Cc1ccccc1)NC(=O)[C@@H]1Cc2ccc(cc2)NC(=O)[C@H](O)[C@@H](O)C(=O)N[C@@H](Cc2cccs2)C(=O)N[C@H](Cc2ccc(-c3ccccc3)cc2)C(=O)N[C@@H](Cc2ccccc2)C(=O)N1" = < 10 µM

* * *

Kindly supply the reported inhibition at 10 µM values for the records listed here.
System: TNF-α (degradation of IkB in HeLa cells or A431 cells)
Assay: Human cell-based assay: inhibition of TNF-α induced degradation of IkB
Conditions: 10 μM compound, HeLa or A431 cells, read-out: Inhibition at Various Compound Concentrations, 10 μM
Numbered stars: 1 amine (or outer) side, 2 acyl side, 3 side chain; on linkers, the order of the positions; unused ones are H or OH. Bridge positions count the residues as written; N and C are the ends. Square brackets hold non-standard residues; d marks the D form. Peptide text beside a SMILES is read from it. Bip = N[C@@H](Cc1ccc(-c2ccccc2)cc1)C(=O)O; Phe(4-NH2) = Nc1ccc(C[C@H](N)C(=O)O)cc1; d2Thi = N[C@H](Cc1cccs1)C(=O)O; Suc = O=C(CCC(=O)[*:2])[*:1]

{"molecule": "O=C1COc2ccc(cc2)C[C@@H](C(=O)N[C@@H](Cc2ccccc2)C(=O)O)NC(=O)[C@@H](CCc2ccc(C(F)(F)F)cc2)NC(=O)[C@H](Cc2ccccc2)NC(=O)[C@@H](Cc2ccc(C(F)(F)F)cc2)N1", "measuredOn": "TNF-α (degradation of IkB in HeLa cells or A431 cells)", "reportedMeasurement": "50 to 80%"}
{"molecule": "O=C1CCC(=O)N[C@H](Cc2cccs2)C(=O)N[C@@H](Cc2ccc(-c3ccccc3)cc2)C(=O)N[C@H](Cc2ccccc2)C(=O)N[C@H](C(=O)N[C@H](Cc2ccccc2)C(=O)O)Cc2ccc(cc2)N1 [Compound 33] ([d2Thi][Bip][dF][Phe(4-NH2)][dF]-OH; linker N-4 via Suc)", "measuredOn": "TNF-α (degradation of IkB in HeLa cells or A431 cells)", "reportedMeasurement": "50 to 80%"}
{"molecule": "O=C1N[C@H](CCc2ccccc2)C(=O)N[C@@H](C(=O)O)Cc2ccc(cc2)NC(=O)[C@H](O)[C@@H](O)C(=O)N[C@H](Cc2cccs2)C(=O)N[C@H]1Cc1ccc(-c2ccccc2)cc1", "measuredOn": "TNF-α (degradation of IkB in HeLa cells or A431 cells)", "reportedMeasurement": "10 to 50%"}
{"molecule": "O=C(O)[C@@H]1Cc2ccc(cc2)NC(=O)[C@H](O)[C@@H](O)C(=O)N[C@H](Cc2ccccc2)C(=O)N[C@@H](Cc2ccc(-c3ccccc3)cc2)C(=O)N[C@H](Cc2ccccc2)C(=O)N1", "measuredOn": "TNF-α (degradation of IkB in HeLa cells or A431 cells)", "reportedMeasurement": "10 to 50%"}

Now take the following molecule into account.
Please fill in: inhibition at 10 µM reported for "C[C@H](NC(=O)[C@@H]1Cc2ccc(cc2)OCC(=O)N[C@@H](Cc2cccs2)C(=O)N[C@@H](Cc2ccc(-c3ccccc3)cc2)C(=O)N[C@@H](Cc2ccccc2)C(=O)N1)C(=O)O" = 10 to 50%

* * *

Biological target: TNFα / TNFα receptor (TNFα R1/Fc) (Homo sapiens, UniProt P01375)
Construct: purchased R&D Systems
Sequence (P01375 77-233 limits assumed, species assumed): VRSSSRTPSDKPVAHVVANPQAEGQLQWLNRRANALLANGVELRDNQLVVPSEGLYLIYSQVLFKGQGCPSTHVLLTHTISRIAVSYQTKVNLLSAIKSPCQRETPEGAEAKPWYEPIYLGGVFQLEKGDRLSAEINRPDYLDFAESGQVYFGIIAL
Test: Inhibition of binding of TNFα to the TNFα receptor (plate ELISA competition)
Details: Table 2; read-out: Activity (IC50, inhibition of TNFα binding to TNFα R1/Fc)
pIC50: −log10 of the molar value. Numbered stars: 1 amine (or outer) side, 2 acyl side, 3 side chain; on linkers, the order of the positions; unused ones are H or OH. Bridge positions count the residues as written; N and C are the ends. Square brackets hold non-standard residues; d marks the D form. Peptide text beside a SMILES is read from it. Bip = N[C@@H](Cc1ccc(-c2ccccc2)cc1)C(=O)O; Phe(4-NH2) = Nc1ccc(C[C@H](N)C(=O)O)cc1; dPhe(2-Me) = Cc1ccccc1C[C@@H](N)C(=O)O; d4Pal = N[C@H](Cc1ccncc1)C(=O)O; d2Thi = N[C@H](Cc1cccs1)C(=O)O; Suc = O=C(CCC(=O)[*:2])[*:1]
Kindly supply the reported pIC50 values for the records listed here.

Reference set, count: 2
{"molecule": "O=C1COc2ccc(cc2)C[C@@H](C(=O)N[C@H](CCc2ccccc2)C(=O)O)NC(=O)[C@H](Cc2c[nH]c3ccccc23)NC(=O)[C@@H](Cc2ccc(-c3ccccc3)cc2)NC(=O)[C@H](Cc2c[nH]c3ccccc23)N1", "pIC50": "> 5.00"}
{"molecule": "O=C1CCC(=O)N[C@H](Cc2cccs2)C(=O)N[C@@H](Cc2ccc(-c3ccccc3)cc2)C(=O)N[C@H](Cc2ccncc2)C(=O)N[C@H](C(=O)O)Cc2ccc(cc2)N1 [Compound 50] ([d2Thi][Bip][d4Pal][Phe(4-NH2)]-OH; linker N-4 via Suc)", "pIC50": "< 4.00"}

Now take the following molecule into account.
Measured pIC50 for this entry Cc1ccccc1C[C@H]1NC(=O)[C@H](Cc2ccc(-c3ccccc3)cc2)NC(=O)[C@@H](Cc2cccs2)NC(=O)CCC(=O)Nc2ccc(cc2)C[C@@H](C(=O)O)NC1=O [Compound 80] ([d2Thi][Bip][dPhe(2-Me)][Phe(4-NH2)]-OH; linker N-4 via Suc) on TNFα / TNFα receptor (TNFα R1/Fc) (Homo sapiens, UniProt P01375): < 4.00

* * *

Target: TNFα / TNFα receptor (TNFα R1/Fc) (Homo sapiens)
Construct: purchased R&D Systems
Assay: Inhibition of binding of TNFα to the TNFα receptor (plate ELISA competition)
Details: Table 2; read-out: Activity (IC50, inhibition of TNFα binding to TNFα R1/Fc)
pIC50: −log10 of the molar value. Numbered stars: 1 amine (or outer) side, 2 acyl side, 3 side chain; on linkers, the order of the positions; unused ones are H or OH. Bridge positions count the residues as written; N and C are the ends. Square brackets hold non-standard residues; d marks the D form. Peptide text beside a SMILES is read from it. Phe(4-CF3) = N[C@@H](Cc1ccc(C(F)(F)F)cc1)C(=O)O; dPhe(2-CF3) = N[C@H](Cc1ccccc1C(F)(F)F)C(=O)O; Bip = N[C@@H](Cc1ccc(-c2ccccc2)cc1)C(=O)O; dBip = N[C@H](Cc1ccc(-c2ccccc2)cc1)C(=O)O; dPhe(4-NH2) = Nc1ccc(C[C@@H](N)C(=O)O)cc1; Phe(4-NH2) = Nc1ccc(C[C@H](N)C(=O)O)cc1; 1Nal = N[C@@H](Cc1cccc2ccccc12)C(=O)O; d(hPhe) = N[C@H](CCc1ccccc1)C(=O)O; 2Pal = N[C@@H](Cc1ccccn1)C(=O)O; 2Thi = N[C@@H](Cc1cccs1)C(=O)O; d2Thi = N[C@H](Cc1cccs1)C(=O)O; Suc = O=C(CCC(=O)[*:2])[*:1]
propertyMeasured: pIC50

{"molecule": "O=C1CCC(=O)N[C@H](CCc2ccccc2)C(=O)N[C@@H](Cc2cccc3ccccc23)C(=O)N[C@H](Cc2ccccc2)C(=O)N[C@H](C(=O)O)Cc2ccc(cc2)N1 [Compound 108] ([d(hPhe)][1Nal][dF][Phe(4-NH2)]-OH; linker N-4 via Suc)", "reportedMeasurement": "4.52 to 5.00"}
{"molecule": "O=C1CCC(=O)N[C@H](Cc2cccs2)C(=O)N[C@@H](Cc2ccc(-c3ccccc3)cc2)C(=O)N[C@H](CCc2ccccc2)C(=O)N[C@H](C(=O)N[C@H](Cc2ccccc2)C(=O)O)Cc2ccc(cc2)N1 [Compound 444] ([d2Thi][Bip][d(hPhe)][Phe(4-NH2)][dF]-OH; linker N-4 via Suc)", "reportedMeasurement": "4.00 to 4.52"}
{"molecule": "O=C1COc2ccc(cc2)C[C@@H](C(=O)O)NC(=O)[C@H](Cc2ccccc2)NC(=O)[C@@H](Cc2ccc(F)cc2)NC(=O)[C@H](Cc2cccs2)N1", "reportedMeasurement": "< 4.00"}
{"molecule": "COc1cccc(-c2ccc(C[C@@H]3NC(=O)[C@@H](CCc4ccccc4)NC(=O)CCC(=O)Nc4ccc(cc4)C[C@@H](C(=O)O)NC(=O)[C@@H](Cc4ccccc4)NC3=O)cc2)c1", "reportedMeasurement": "4.52 to 5.00"}
{"molecule": "O=C1CCC(=O)N[C@H](Cc2ccccc2C(F)(F)F)C(=O)N[C@@H](Cc2ccc(C(F)(F)F)cc2)C(=O)N[C@H](Cc2ccccc2)C(=O)N[C@H](C(=O)O)Cc2ccc(cc2)N1 [Compound 163] ([dPhe(2-CF3)][Phe(4-CF3)][dF][Phe(4-NH2)]-OH; linker N-4 via Suc)", "reportedMeasurement": "4.00 to 4.52"}
{"molecule": "O=C1N[C@H](Cc2ccccc2)C(=O)N[C@@H](C(=O)O)Cc2ccc(cc2)NC(=O)[C@H](O)[C@@H](O)C(=O)N[C@@H](Cc2cccs2)C(=O)N[C@H]1Cc1ccc(-c2ccccc2)cc1", "reportedMeasurement": "< 4.00"}
{"molecule": "CC(C)(C)OC(=O)CC[C@@H]1NC(=O)[C@H](Cc2ccc(-c3ccccc3)cc2)NC(=O)[C@H](Cc2cccs2)NC(=O)COc2ccc(cc2)C[C@@H](C(=O)O)NC1=O", "reportedMeasurement": "4.00 to 4.52"}
{"molecule": "O=C(O)[C@@H]1Cc2ccc(cc2)NC(=O)[C@@H]2CCCC[C@@H]2C(=O)N[C@H](Cc2cccs2)C(=O)N[C@@H](Cc2ccc(-c3ccccc3)cc2)C(=O)N[C@H](Cc2ccccc2)C(=O)N1", "reportedMeasurement": "< 4.00"}

The following molecules each have a reported value; give each one's pIC50.
1. O=C1COc2ccc(cc2)C[C@@H](C(=O)O)NC(=O)[C@H](Cc2ccccc2)NC(=O)[C@H](Cc2cccc(C(F)(F)F)c2)NC(=O)[C@H](Cc2cccs2)N1
2. O=C1COc2ccc(cc2)C[C@H](C(=O)O)NC(=O)[C@H](Cc2ccccc2)NC(=O)[C@@H](Cc2ccc(-c3ccccc3)cc2)NC(=O)[C@H](Cc2cccs2)N1
3. O=C1CCC(=O)N[C@H](Cc2cccs2)C(=O)N[C@H](Cc2ccc(-c3ccccc3)cc2)C(=O)N[C@@H](Cc2ccccc2)C(=O)N[C@H](C(=O)O)Cc2ccc(cc2)N1 [Compound 496] ([d2Thi][dBip]F[Phe(4-NH2)]-OH; linker N-4 via Suc)
4. O=C1CCC(=O)N[C@H](Cc2cccs2)C(=O)N[C@@H](Cc2ccc(-c3ccccc3)cc2)C(=O)N[C@@H](Cc2ccccn2)C(=O)N[C@H](C(=O)O)Cc2ccc(cc2)N1 [Compound 53] ([d2Thi][Bip][2Pal][Phe(4-NH2)]-OH; linker N-4 via Suc)
5. O=C1CCC(=O)N[C@@H](Cc2cccs2)C(=O)N[C@H](Cc2ccc(-c3ccccc3)cc2)C(=O)N[C@H](Cc2ccccc2)C(=O)N[C@@H](C(=O)O)Cc2ccc(cc2)N1 [Compound 501] ([2Thi][dBip][dF][dPhe(4-NH2)]-OH; linker N-4 via Suc)
6. O=C1CCC(=O)N[C@H](CCc2ccccc2)C(=O)N[C@@H](Cc2ccc(-c3ccccc3)cc2)C(=O)N[C@H](Cc2ccccc2)C(=O)N[C@H](C(=O)N[C@@H](Cc2ccc(O)cc2)C(=O)O)Cc2ccc(cc2)N1 [Compound 471] ([d(hPhe)][Bip][dF][Phe(4-NH2)]Y-OH; linker N-4 via Suc)
7. O=C1COc2ccc(cc2)C[C@@H](C(=O)O)NC(=O)[C@@H](CCc2ccccc2)NC(=O)[C@H](Cc2ccc(-c3ccccc3)cc2)NC(=O)[C@@H](Cc2ccc(O)cc2)N1

1. > 5.00
2. < 4.00
3. < 4.00
4. < 4.00
5. < 4.00
6. > 5.00
7. < 4.00
